- assayComment: photoluminescence quantum yield (fraction); solvent given as SMILES
- particulars: in CC(C)O
For each of the compounds below, state its photoluminescence quantum yield.
Answer as a number with no unit attached.

Task: Look up photoluminescence quantum yield: CC1(C)CCc2c(c3ccccc3c3nc4c5c(c6ccccc6c4nc23)OC(C)(C)CC5)O1
Result: 0.53

Task: Repeat with CCCCN1c2ccccc2Sc2cc(/C=C/C3=Nc4ccc5ccccc5c4C3(C)C)ccc21
Result: 0.07

Task: Another compound to check: O=C1c2ccc3c4ccc5c6c(ccc(c7ccc(c2c37)C(=O)N1c1ccncc1)c64)C(=O)N(c1ccncc1)C5=O
Result: 0.454

Task: // next record CN(CC(O)c1cccc(O)c1)c1ccc([N+](=O)[O-])c(C2CC(c3cccc4ccccc34)=NN2c2ccccc2)c1 (configuration not stated)
Result: 0.17

Task: Would you kindly repeat that for NS(=O)(=O)c1ccc(N2N=C(c3ccc(O)cc3)CC2c2ccc(Br)cc2)cc1 (configuration not stated) ?
Result: 0.57

Task: Follow-up entry: Cn1cc(/C=C/C(=O)c2ccccc2)c2ccccc21
Result: 0.231

Task: Same thing, different compound: CCN1C(=CC2=C([O-])C(=Cc3sc4ccccc4[n+]3CC)C2=O)Sc2ccccc21
Result: 0.13

Task: Please give the result for O=C([O-])c1c(Cl)c(Cl)c(Cl)c(Cl)c1-c1c2cc(I)c(=O)c(I)c-2oc2c(I)c([O-])c(I)cc12 too.
Result: 0.14

Task: Next compound: COc1ccc(C2CC(c3ccc(O)cc3)=NN2c2ccc(S(N)(=O)=O)cc2)cc1 (configuration not stated)
Result: 0.55

Task: Can you handle COC(=O)C(Cc1ccc2oc(-c3ccc(N(C)C)cc3)nc2c1)NC(=O)OC(C)(C)C (configuration not stated) next?
Result: 1

Task: Another compound to check: CCN1C(=CC2=C([O-])C(=CC3=[N+](CC)c4ccccc4C3(C)C)C2=O)C(C)(C)c2ccccc21
Result: 0.09

Task: Now the same for N#Cc1coc2ccccc2c1=O
Result: 0.001

Task: Continue with O=[N+]([O-])c1ccc(F)cc1C1CC(c2cccc3ccccc23)=NN1c1ccccc1 (configuration not stated)
Result: 0.19

Task: Also COC(=O)C(Cc1ccc2oc(-c3ccc(N(C)c4ccccc4)cc3)nc2c1)NC(=O)OC(C)(C)C (configuration not stated) ?
Result: 0.19

Task: Item: CCNc1ccc2c(C(F)(F)F)cc(=O)oc2c1
Result: 0.54

Task: Try this compound next: COCCOc1cc(C=O)c(OCCOC)cc1C=O
Result: 0.1

Task: Okay, and CC1(C)CCc2c(c3ccccc3c3nc4c(nc23)c2c(c3ccccc34)OC(C)(C)CC2)O1 ?
Result: 0.4
